# key: entry, value: IC50
- Test system: A10
- test-summary: Ability to inhibit [125I]ET1 binding to vascular smooth muscle (vsm)- A10 cells
- Assay type: functional, cell-based
- condition-parameters: Rattus norvegicus

molecule-smiles: CCCCCc1cc(NS(=O)(=O)c2ccc(N)cc2)on1
IC50: > 32 µM

molecule-smiles: Nc1ccc(S(=O)(=O)Nc2cc(-c3ccccc3)no2)cc1
IC50: > 32 µM

Taken from ChEMBL document CHEMBL1127313.
